Molecular target: ligand binding domain of human ROR gamma (Homo sapiens)
Construct: NM_001001523; expressed in transfected cells; host or cells: HEK293T
Sequence (P51449 247-497 isoform P51449-2): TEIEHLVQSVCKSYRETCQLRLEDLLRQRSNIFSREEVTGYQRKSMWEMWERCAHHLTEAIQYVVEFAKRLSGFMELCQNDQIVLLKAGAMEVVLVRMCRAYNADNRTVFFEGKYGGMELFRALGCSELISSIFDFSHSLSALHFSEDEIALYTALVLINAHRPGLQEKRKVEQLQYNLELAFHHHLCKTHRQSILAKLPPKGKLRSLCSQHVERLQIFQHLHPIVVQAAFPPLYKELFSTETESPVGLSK
Experiment: ROR gamma reporter gene assay (GAL4-RORγ LBD luciferase, Dual-Glo)
Format: cell-based
Settings: HEK293T cells transfected with pM-ROR gamma, 8 concentrations 3.5 nM to 10.5 μM, 24 h incubation; read-out: result (pIC50, inhibition of RORγ transcriptional activity) (converted)
ENDPOINT NAME: log10(IC50) (log10 of the value in pM)
A difference of one corresponds to tenfold IC50; all values are log10 with IC50 in pM.

Some molecules with recorded log10(IC50):
INSERT INTO results (molecule, observed) VALUES
  ('CC(C)(C)C#CCN(CC(=O)c1c(Cl)cccc1C(F)(F)F)C(=O)c1cnn([C@H]2CC[C@](C)(C(=O)O)CC2)c1C(F)(F)F', 5.34),
  ('CC1(C)CC[C@H](N(CC(=O)c2c(Cl)cncc2Cl)C(=O)c2cnn([C@H]3CC[C@H](C(=O)O)CC3)c2C(F)(F)F)C1 [Example 183]', 5.24),
  ('CC1(C)CC(CN(CC(=O)c2c(Cl)cccc2C(F)(F)F)C(=O)c2cnn(C34CCC(C(=O)O)(CC3)CC4)c2C(F)(F)F)C1', 3.82),
  ('O=C(CN(C(=O)c1cnn([C@H]2CC[C@H](C(=O)O)CC2)c1C(F)(F)F)[C@H]1CC[C@H](C(F)(F)F)CC1)c1c(Cl)cncc1Cl', 5.05);

log10(IC50) for "CC(C)(F)CN(CC(=O)c1c(Cl)cncc1Cl)C(=O)c1cnn([C@H]2CC[C@H](C(=O)O)CC2)c1C(F)(F)F" ?
5.81
